- System: MDA-MB-231
- experimentDescription: NCI tumour cell line growth inhibition, 48 h
Calls of active or inactive are those of the source. Rule as the data show it: active = GI50 up to about 1.1 µM and inactive = higher.
Answer with one of the outcomes active, inactive

Below are worked cases with known answers.
CC(C)NC(=O)OCC[S+]([O-])c1c(Cl)c(Cl)nn1C (stereo not given) = inactive
CN(c1ccccc1)S(=O)(=O)c1ccc([N+](=O)[O-])cc1 = inactive
Cc1cc(C)c2c(n1)S(=O)(=O)N(CCCN1CCN(c3cccc(C(F)(F)F)c3)CC1)c1c-2nn(C)c1C = inactive
COc1ccc(N2C=Nn3c(nc4sc5c(c4c3=O)CCCC5)C2)cc1 = inactive
Cc1cc(O)c2c(c1O)C(=O)C1=C(C2=O)C(=O)C2C(O)C1C1C(O)CC(O)=C3C(=O)c4c(O)cc(C)c(O)c4C(=O)C321 (stereo not given) = inactive

QUERY: Tell me the assay call for C[C@]12CC[C@@H]3c4cc(Br)c(O)c(Br)c4CC[C@H]3[C@@H]1CC(Br)C2=O (stereo not given in full) please.
RESULT: inactive

QUERY: Query: recorded result category for CCN(CC)c1c(-c2c(N(CC)CC)c(OC(C)=O)c3sccn3c2=O)c(=O)n2ccsc2c1OC(C)=O in this test
RESULT: inactive

QUERY: # lookup: test call for O=NN(Cc1ccc(Cl)cc1)C(C(=O)O)c1ccccc1 (stereo not given)
RESULT: inactive

QUERY: Please share the test call associated with O=C1OC(c2ccc(O)c(-c3ccccc3)c2)(c2ccc(O)c(-c3ccccc3)c2)c2c(Cl)c(Cl)c(Cl)c(Cl)c21 .
RESULT: inactive

QUERY: Fill in: this test's call for CSc1ccc(Nc2cc(=O)[nH]c(=O)[nH]2)cc1 is ___
RESULT: inactive
